Target: Purified recombinant ADAMTS-7 (rat prodomain/human catalytic domain, SEQ ID No. 01 or 02) (Homo sapiens, UniProt Q9UKP4)
Construct: rat ADAMTS-7 signal peptide + prodomain (rat 1-217, Q1EHB3) (N); 2xStrep tag (C); 6xHis tag (C); made in house; host or cells: Expi293 cells
Sequence (Q9UKP4 237-537): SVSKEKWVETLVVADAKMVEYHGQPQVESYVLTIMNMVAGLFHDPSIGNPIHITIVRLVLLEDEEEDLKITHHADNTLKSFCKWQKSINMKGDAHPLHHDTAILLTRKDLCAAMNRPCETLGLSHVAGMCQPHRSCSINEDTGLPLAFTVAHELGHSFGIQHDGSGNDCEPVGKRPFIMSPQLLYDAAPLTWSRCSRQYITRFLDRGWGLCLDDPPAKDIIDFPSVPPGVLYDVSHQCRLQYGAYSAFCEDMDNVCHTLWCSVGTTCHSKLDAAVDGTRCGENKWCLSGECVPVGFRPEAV
Experiment: Assay for ADAMTS-7 enzymatic activity (FRET substrate cleavage)
Assay type: biochemical
Conditions: FRET substrate SEQ ID No. 11, 120 min at 32° C.; read-out: ADAMTS7-IC50
Observation type: pIC50
Hey, just a heads up that pIC50 is the negative log base 10 of the concentration in molar.

Req: # pIC50 lookup, item O=C1NC(=O)C(CNC(=O)c2cnn(-c3ccc(F)c(F)c3)n2)(C2CCC2)N1 (stereo not shown)
Resp: 8.22

Req: May I ask what pIC50 has been recorded for C[C@@H](NC(=O)c1cnn(-c2ccccc2)n1)C1(C2CC2)NC(=O)NC1=O (stereo partly shown) ?
Resp: 6.15

Req: What value of measured pIC50 is listed for O=C1NC(=O)[C@](CNC(=O)c2cnn(-c3ccccn3)n2)(C2CC2)N1 [Example 60] ?
Resp: 6.59

Req: Query: pIC50; subject: O=C1NC(=O)C(CNC(=O)c2cnn(-c3ccccc3)n2)(c2ccccn2)N1 (racemic) [Example 20]
Resp: 7.59

---

Biological target: Purified recombinant ADAMTS-7 (rat prodomain/human catalytic domain, SEQ ID No. 01 or 02) (Homo sapiens)
Construct: rat ADAMTS-7 signal peptide + prodomain (rat 1-217, Q1EHB3) (N); 2xStrep tag (C); 6xHis tag (C)
Assay: Assay for ADAMTS-7 enzymatic activity (FRET substrate cleavage)
Settings: FRET substrate SEQ ID No. 11, 120 min at 32° C.; read-out: ADAMTS7-IC50
IC50 class ranges: lower = under 10 nM, middle = from 10 nM up to 200 nM, upper = 200 nM and over

Req: Please indicate the class for Cn1ccnc1C1(CNC(=O)c2cnn(-c3ccc(F)c(F)c3)n2)NC(=O)NC1=O (single isomer, unassigned; ent-2) [Example 147] based on its IC50.
Resp: lower

Req: Class? Entry: O=C1NC(=O)[C@](CNC(=O)c2cnn(-c3ncccc3F)n2)(C2CC2)N1 [Example 101]
Resp: lower

Req: Hi, small favor: classify O=C1NC(=O)C(CNC(=O)c2cnn(-c3ccc(F)cc3)n2)(C2CC(F)(F)C2)N1 (racemic) [Example 155] by its IC50 when you get a moment.
Resp: upper

Req: Exam item: assign O=C1NC(=O)[C@](CNC(=O)c2cnn(-c3cnsc3)n2)(C2CC2)N1 [Example 132] to the correct category.
Resp: upper

Req: Record CC(C)(C)CC1(CNC(=O)c2cnn(-c3ccccc3)n2)NC(=O)NC1=O (stereo not drawn) [Example 44] — which class?
Resp: upper

Req: Which class does O=C1NC(=O)[C@](CNC(=O)c2cnn(-c3ccc(F)cc3)n2)(C2CC2)N1 [Example 34] fall in?
Resp: middle

Req: Band of CCn1nccc1C1(CNC(=O)c2cnn(-c3ccc(F)cc3)n2)NC(=O)NC1=O (racemic) [Example 130] ?
Resp: middle

Req: Which IC50 category applies to CC(C)(C)C1(CNC(=O)c2cnn(-c3ccccc3)n2)NC(=O)NC1=O (stereo not drawn) [Example 71] here?
Resp: middle

---

Target: ADAMTS4 (Homo sapiens, UniProt O75173)
Sequence (O75173 213-685 limits assumed): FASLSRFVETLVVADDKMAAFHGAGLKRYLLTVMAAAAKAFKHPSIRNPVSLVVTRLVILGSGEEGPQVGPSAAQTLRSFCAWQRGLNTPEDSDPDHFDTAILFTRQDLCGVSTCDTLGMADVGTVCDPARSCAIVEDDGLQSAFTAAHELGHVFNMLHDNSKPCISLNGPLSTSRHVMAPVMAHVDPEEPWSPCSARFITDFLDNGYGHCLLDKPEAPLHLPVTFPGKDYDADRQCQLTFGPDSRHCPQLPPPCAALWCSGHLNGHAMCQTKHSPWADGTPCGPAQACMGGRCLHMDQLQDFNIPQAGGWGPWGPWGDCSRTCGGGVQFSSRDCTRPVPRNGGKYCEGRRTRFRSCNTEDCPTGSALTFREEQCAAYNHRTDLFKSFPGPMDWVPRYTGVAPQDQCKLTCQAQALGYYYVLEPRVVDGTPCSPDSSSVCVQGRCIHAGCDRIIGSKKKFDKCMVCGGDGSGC
Binarize IC50 at 3 µM; below is t, at or above is f.

Req: In plain terms, does O=C1NC(=O)C(CNC(=O)c2cnn(-c3ccc(F)cc3)n2)(c2ccnn2CC(F)(F)F)N1 (racemic) come in under 3 µM for IC50?
Resp: f

Req: Please check: IC50 for O=C1NC(=O)C(CNC(=O)c2cnn(-c3ccc(F)cc3)n2)(C2(F)CC2)N1 (racemic) , strictly under 3 µM or not?
Resp: f

Req: Here's an entry: O=C1NC(=O)[C@](CNC(=O)c2cnn(-c3ccc(Cl)cc3F)n2)(C2CC2)N1 . Is its IC50 below 3 µM?
Resp: t

Req: Item CS(=O)(=O)c1ccc(-n2ncc(C(=O)NC[C@@]3(C4CC4)NC(=O)NC3=O)n2)cc1 : IC50 beneath 3 µM, strictly?
Resp: f

Req: # check: IC50 < 3 µM for CC(CO)C1(CNC(=O)c2cnn(-c3ccccc3)n2)NC(=O)NC1=O (centres unmarked)
Resp: f

Req: For Cc1cccc(-n2ncc(C(=O)NC[C@@]3(C4CC4)NC(=O)NC3=O)n2)c1 , is the recorded IC50 below the cut-off of 3 µM?
Resp: t

Req: I wonder whether N#Cc1ccc(-n2ncc(C(=O)NC[C@@]3(C4CC4)NC(=O)NC3=O)n2)cc1 has IC50 below 3 µM. Can you tell?
Resp: f

---

Molecular target: Purified recombinant ADAMTS-7 (rat prodomain/human catalytic domain, SEQ ID No. 01 or 02) (Homo sapiens)
Construct: rat ADAMTS-7 signal peptide + prodomain (rat 1-217, Q1EHB3) (N); 2xStrep tag (C); 6xHis tag (C)
Experiment: Assay for ADAMTS-7 enzymatic activity (FRET substrate cleavage)
Conditions: FRET substrate SEQ ID No. 11, 120 min at 32° C.; read-out: ADAMTS7-IC50
Observation type: pIC50
Keep in mind that pIC50 stands for -log10 of concentration in molar terms.

Req: Sample O=C1NC(=O)C(CNC(=O)c2cnn(-c3ccccc3)n2)(C2CCCCC2)N1 (racemic) — what was its pIC50?
Resp: 6.84

Req: Could you share which pIC50 value was measured for O=C1NC(=O)[C@](CNC(=O)c2cnn(-c3ccc(Cl)cc3)n2)(C2CC2)N1 ?
Resp: 7.59

Req: Which pIC50 value belongs to CC(C)C1(CNC(=O)c2cnn(-c3ccccc3)n2)NC(=O)NC1=O (racemic) [Example 48] ?
Resp: 6.58

Req: So what does the record say about pIC50 for N#Cc1ccc(-n2ncc(C(=O)NC[C@@]3(C4CC4)NC(=O)NC3=O)n2)cc1 ?
Resp: 6.40

Req: Form field: reported pIC50 of O=C1NC(=O)C(CNC(=O)c2cnn(-c3ccc(F)c(Cl)c3)n2)(C2CCC2)N1 (single isomer, unassigned; ent-2)
Resp: 7.74

Req: Name the reported pIC50 value associated with the compound O=C1NC(=O)C(CNC(=O)c2cnn(-c3cccc(Cl)c3)n2)(C2CCC2)N1 (single isomer, unassigned; ent-2)
Resp: 7.32

Req: Recorded pIC50 for CCCCC1(CNC(=O)c2cnn(-c3ccc(F)cc3)n2)NC(=O)NC1=O (stereo not shown) [Example 82] , please?
Resp: 7.32

---

Target: Purified recombinant ADAMTS-7 (rat prodomain/human catalytic domain, SEQ ID No. 01 or 02) (Homo sapiens)
Construct: rat ADAMTS-7 signal peptide + prodomain (rat 1-217, Q1EHB3) (N); 2xStrep tag (C); 6xHis tag (C); made in house; host or cells: Expi293 cells
Experiment: Assay for ADAMTS-7 enzymatic activity (FRET substrate cleavage)
Assay type: biochemical
Conditions: FRET substrate SEQ ID No. 11, 120 min at 32° C.; read-out: ADAMTS7-IC50
Observation type: pIC50
FYI, pIC50 means -log10 of a concentration in mol per litre.

Req: For the molecule O=C1NC(=O)[C@](CNC(=O)c2cnn(-c3cccc(Cl)c3)n2)(C2CC2)N1 , what pIC50 is on record?
Resp: 7.68

Req: Tell me the measured pIC50 of CC(C)(C)C1(CNC(=O)c2cnn(-c3ccc(C(F)(F)F)cc3)n2)NC(=O)NC1=O (racemic) , please.
Resp: 6.21

Req: Report pIC50 for O=C1NC(=O)[C@](CNC(=O)c2cnn(-c3cccc(F)c3)n2)(C2CC2)N1 please.
Resp: 7.89

Req: Please look up its pIC50: O=C1NC(=O)C(CNC(=O)c2cnn(-c3ccccc3)n2)(C2CCOCC2)N1 (racemic)
Resp: 6.89

Req: Requested field: pIC50. Item: CC1(C)CC1C1(CNC(=O)c2cnn(-c3ccccc3)n2)NC(=O)NC1=O (stereo not shown) [Example 43]
Resp: 6.49

Req: Item O=C1NC(=O)[C@](CNC(=O)c2cnn(-c3ccccc3Cl)n2)(C2CC2)N1 has what recorded pIC50?
Resp: 6.33

Req: # pIC50 lookup, item O=C1NC(=O)C(CNC(=O)c2cnn(-c3ccccc3)n2)(C2CCCOC2)N1 (racemic) [Example 7]
Resp: 7.21

Req: Which pIC50 reading was recorded for the molecule CC1(C)CC1C1(CNC(=O)c2cnn(-c3ccccc3)n2)NC(=O)NC1=O (racemic) [Example 150] ?
Resp: 7.42

Req: Name the reported pIC50 value associated with the molecule O=C1NC(=O)[C@](CNC(=O)c2cnn(-c3ncc(F)cc3F)n2)(C2CC2)N1
Resp: 6.72

Req: Which pIC50 is listed for CC(C)C1(CNC(=O)c2cnn(-c3cccc(C#N)c3)n2)NC(=O)NC1=O (single isomer, unassigned; ent-2) [Example 121] ?
Resp: 7.11

Req: Which pIC50 value is on record for O=C1NC(=O)C(CNC(=O)c2cnn(-c3ccc(F)cc3)n2)(c2ncccc2C(F)(F)F)N1 (racemic) ?
Resp: 7.23

Req: GET /values?readout=pIC50&item= O=C1NC(=O)[C@](CNC(=O)c2cnn(-c3ccccc3F)n2)(C2CC2)N1
Resp: 6.74

Req: Look up pIC50: CC(C)(C)C1(CNC(=O)c2cnn(-c3ccc(F)cc3)n2)NC(=O)NC1=O (racemic) [Example 63]
Resp: 7.16

Req: Tell me the measured pIC50 of CC(C)(C)C1(CNC(=O)c2cnn(-c3ccccc3)c2)NC(=O)NC1=O (racemic) , please.
Resp: 6.26

Req: Item CC(C)C1(CNC(=O)c2cnn(-c3cc(F)c(F)c(F)c3)n2)NC(=O)NC1=O (racemic) [Example 99] has what recorded pIC50?
Resp: 7.28

Req: Which pIC50 is reported for this molecule? O=C1NC(=O)[C@](CNC(=O)c2cnn(-c3ccc(F)cc3F)n2)(C2CC2)N1
Resp: 7.39
